target: T1, Soluble IGF-1R (R&D Systems, Cat. # 391-GR/CF); recombinant human IGF-1R (human, UniProt P08069 31-935); assay: phage ELISA vs milk
T1 construct: extracellular domain; Eu3+-labelled in the TR-FRET assays; also called sIGF-1R; rhIGF-1R
Positions of bridges follow the written chain, without caps; N, C: chain ends. No end group written: not given here.
Decision: Ratio over Background >= 9 fold yields T, all other cases yield F.

Here's what some known entries look like.
binder | labelValue
GGTEVDFYRALERLVRGQLGL [20E23-3-D8-IGFR] | T
HLADGQFHEKFYDWFERQISSRCNDC [H2CA-3-E11-IGFR] | F
PVGVQGFYEGLSRLVLGRGGW [20E22-4-F8-IGFR] | F
FFYRCLSRLLGGQLGSRLGLSCIGD (disulfide 5-22 (inferred)) [20C-3-E4-IGFR] | F

Now look at this one.
## Task Does Ratio over Background meet or surpass 9 fold for RGQSDAFYSGLWALIGLSDG [R20β-4-A6-IR] ?
## Result T
